Hello, the source for this data is PubChem BioAssay (EPA / NIEHS), in case you need it.

target: Paired box protein Pax-6 (Homo sapiens); assay: ATG_Pax6_CIS: Attagene CIS-FACTORIAL HepG2 Assay for human Paired Box 6 (PAX6) (AID 2282956); settings: HepG2 CIS-FACTORIAL PAX6 reporter transcription, RNA readout; actives raise or lower the signal
The source made the active and inactive calls. The calls were made as follows: active = hit-call score of the fitted dose curve at least 0.9, where 1 is the maximum; inactive = score below 0.9.
Your response should consist of one outcome taken from TRUE (active), FALSE (inactive)

C[N+]1(C)CCCCC1
FALSE

Query: Per the records of this test, what outcome belongs to CN(C)NC(=O)CCC(=O)O ?
Response: FALSE

---

test: APR_HepG2_NuclearSize_72hr: Apredica 72-hour HepG2 Assay for Nuclear Size (AID 2282925); settings: high-content imaging, actives raise or lower the signal
Activity calls are given as the source filed them. How the source made its calls: active means hit-call score of the fitted dose curve at least 0.9, where 1 is the maximum; inactive means score below 0.9.
Attribute measured: outcome

Sample answers from the record:
CCOP(=S)(OCC)Oc1ccc2c(C)c(Cl)c(=O)oc2c1
inactive
CN1COCN(Cc2cnc(Cl)s2)C1=N[N+](=O)[O-]
inactive
CN(C)C(=O)Nc1cccc(C(F)(F)F)c1
inactive
C[Si](Cn1cncn1)(c1ccc(F)cc1)c1ccc(F)cc1
inactive
CCCCOC(=O)c1ccccc1C(=O)O
inactive
CN(C)[C@@H]1C(=O)C(C(N)=O)=C(O)[C@@]2(O)C(=O)C3=C(O)c4c(O)cccc4[C@@](C)(O)[C@H]3[C@H](O)[C@@H]12
inactive
CCCCSP(=O)(SCCCC)SCCCC
inactive
C#CC(C)(C)NC(=O)c1cc(Cl)cc(Cl)c1
inactive
CN(C)NC(=O)CCC(=O)O
inactive
CCC(=O)Nc1ccc(Cl)c(Cl)c1
inactive

The compound listed as O=C(O)c1cc(Oc2ccc(C(F)(F)F)cc2Cl)ccc1[N+](=O)[O-] shows outcome equal to inactive

The compound listed as Nc1c(Cl)cc([N+](=O)[O-])cc1Cl shows outcome equal to inactive

---

Read-out: growth arrest and DNA damage 45 (GADD45B), GADD45B (gene 4616)
Experiment: LTEA_HepaRG_GADD45B: Life Technologies and Expression Analysis (LTEA) Assay for growth arrest and DNA damage 45 (GADD45B) using HepaRG (AID 2283461)
Details: mRNA level, 48 h; actives raise or lower the signal
Method: LTEA_HepaRG is a cell based, multiplexed-readout assay that uses HepaRG, a human liver cell line, with measurements taken at 48 hours after chemical dosing on a 96-well plate.LTEA_HepaRG_GADD45B is one of 102 assay component(s) measured in the LTEA HepaRG cell culture assay. It is a marker of Cell proliferation, survival, death.Data from the assay component LTEA_HepaRG_GADD45B was analyzed into 1 endpoint. […]
Active and inactive are the calls of the source. How the source made its calls: active means hit-call score of the fitted dose curve at least 0.9, where 1 is the maximum; inactive means score below 0.9.
Your response should consist of one outcome taken from active, inactive

CN(C)[C@@H]1C(=O)C(C(N)=O)=C(O)[C@@]2(O)C(=O)C3=C(O)c4c(O)cccc4[C@@](C)(O)[C@H]3[C@H](O)[C@@H]12
inactive
CCOC(=O)COc1cc(-c2nn(C)c(OC(F)F)c2Cl)c(F)cc1Cl
inactive
CCCOCC(=Nc1ccc(Cl)cc1C(F)(F)F)n1ccnc1
active
CCCCN(CC)c1c([N+](=O)[O-])cc(C(F)(F)F)cc1[N+](=O)[O-]
inactive
CCC(CC)Nc1c([N+](=O)[O-])cc(C)c(C)c1[N+](=O)[O-]
inactive

Query: Per the records of this test, what outcome belongs to C[N+]1(C)CCCCC1 ?
Response: inactive

Query: Per the records of this test, what outcome belongs to CN1COCN(Cc2cnc(Cl)s2)C1=N[N+](=O)[O-] ?
Response: inactive
